src = BigSolDB 2.1

Details: in THF, 308.15 K
Measurement Type: solubility (mole fraction)
Reply with just the number.

Which solubility (mole fraction) value belongs to `Nc1ccc(N2CCOCC2=O)cc1` ? 0.00687

###

Conditions: in ethanol, 318.15 K
Measurement Type: solubility (mole fraction)
Reply with just the number.

Which solubility (mole fraction) value belongs to `Nc1ccc(N2CCOCC2=O)cc1` ? 0.00672

###

Conditions: in n-propanol, 308.15 K
Measurement Type: solubility (mole fraction)
Reply with just the number.

Which solubility (mole fraction) value belongs to `Nc1ccc(N2CCOCC2=O)cc1` ? 0.00133

###

Settings: in ethanol, 308.15 K
Measurement Type: solubility (mole fraction)
Reply with just the number.

Which solubility (mole fraction) value belongs to `Nc1ccc(N2CCOCC2=O)cc1` ? 0.00475
